Measured values drawn from patent US20060110401A1 for this set.

# TARGET_OF_ASSAY: HLA-DR3 (DRB1*0301) (human)
# ASSAY_PROTOCOL: competition binding
# ASSAY_SETUP: chains peptide; modification not given
pIC50: −log10 of the molar value.
QUANTITY_MEASURED: pIC50

- BINDER: "KPGIYRFVAPGERPSGMFD [27N 1495-1513]"
  MEASURED_VALUE: "< 4.00"
- BINDER: "PQDVKFPGGGQIVGGVYLLPRRGPRLGVR [1C 19-47]"
  MEASURED_VALUE: "< 4.00"
- BINDER: "DPNIRTGVRTITTGSPITYSTYGKFLADGG [19N 1275-1304]"
  MEASURED_VALUE: "< 4.00"
- BINDER: "SSDLYLVTRHADVIPVRRRGDSRGSLL [13N 1127-1153]"
  MEASURED_VALUE: "< 4.00"
- BINDER: "GREILLGPADGMVSKGWRLLAPITAYAQQTR [8N 1007-1037]"
  MEASURED_VALUE: 6.70
